- target: Heat shock factor protein 1 (Mus musculus, UniProt P38532)
- Sequence (P38532 whole entry): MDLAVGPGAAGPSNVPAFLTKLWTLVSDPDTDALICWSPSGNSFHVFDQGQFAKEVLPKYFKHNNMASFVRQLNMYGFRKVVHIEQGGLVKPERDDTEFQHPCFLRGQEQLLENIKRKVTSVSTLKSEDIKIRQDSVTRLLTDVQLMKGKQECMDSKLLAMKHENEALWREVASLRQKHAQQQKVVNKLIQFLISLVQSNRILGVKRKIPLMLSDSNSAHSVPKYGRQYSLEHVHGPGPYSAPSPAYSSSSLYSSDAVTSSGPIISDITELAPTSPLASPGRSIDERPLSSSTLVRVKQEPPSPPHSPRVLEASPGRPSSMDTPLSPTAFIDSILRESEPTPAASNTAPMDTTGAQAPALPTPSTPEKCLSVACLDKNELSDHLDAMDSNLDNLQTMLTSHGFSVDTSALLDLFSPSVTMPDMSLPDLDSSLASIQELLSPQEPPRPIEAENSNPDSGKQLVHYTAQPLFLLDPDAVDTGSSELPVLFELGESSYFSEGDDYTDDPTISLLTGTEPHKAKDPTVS
- test details: enhancement of HSF1-driven luciferase signal – cell-based, NIH3T3, luminescence, dose retest, confirmation (AID 435004);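 further: stress induced by proteasome inhibitor MG132 added 30 min after compound; luciferase reporter driven by HSF1 response element in NIH3T3 cells; actives raise luminescence as potentiators of the MG132 stress response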
- Type: functional
Active and inactive are the calls of the source.
Lab note: assign the record to one of active, inactive

Ask: Would you mind telling me which call this test gave CCCNC(=O)c1c(CSc2ccc(Cl)cc2)noc1C(=O)NCc1ccccc1 ?
Result: inactive

Ask: Now give it for N#C/C(=C\c1ccc(OCc2ccc(Cl)cc2)cc1)C(=O)Nc1cccc(C(=O)O)c1 too.
Result: active

Ask: Now give it for CC1(c2ccc([N+](=O)[O-])cc2)NC(=O)N(CC(=O)c2ccc3c(c2)OCO3)C1=O (stereo not drawn) too.
Result: inactive

====

Provide the recorded EC50 for the entries that follow.
- test details: NIH3T3 cell viability loss – ATP luminescence, mouse fibroblasts, counter-screen, dose response (AID 2010);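 further: cells exposed to compound for about 90 hours before reading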
- Type: functional, cell-based
Active and inactive are the calls of the source.

Ask: Given the compound COc1ccc(C(=O)C/C(=C\C(=O)c2ccc(C)cc2)c2ccccc2)cc1 , what is its reported EC50?
Result: > 60 µM (not active)

Ask: Now give it for N#CC1(NC(=O)Cn2ncc(Cl)c(Cl)c2=O)CCCCC1 too.
Result: 3.27 µM (active)

Ask: Now give it for O=C(c1ccc2c(c1)OCO2)C1CCCN(C2CCN(CCc3ccccc3)CC2)C1 (stereo unspecified) too.
Result: > 60 µM (not active)

Ask: Now give it for COc1ccc(CCn2c(SCCN3CCCCC3)nc3ccccc3c2=O)cc1OC too.
Result: > 60 µM (not active)

Ask: Now give it for COc1ccc(/C=N\N=C(N)N)cc1 too.
Result: > 60 µM (not active)

Ask: Now give it for CN(C)S(=O)(=O)c1cccc(NC(=O)CSc2cccc3cccnc23)c1 too.
Result: 4.3 µM (active)

Ask: Now give it for Nc1c(N(CCC2=CCCCC2)C(=O)c2ccc([N+](=O)[O-])o2)c(=O)[nH]c(=O)n1Cc1ccccc1 too.
Result: > 60 µM (not active)

Ask: Now give it for CCc1ccc2c(c1)C1(NN=C(c3ccccc3)S1)C(=O)N2 (stereo unspecified) too.
Result: 5.31 µM (active)

Ask: Now give it for Cc1nc(NC(=O)c2ccccc2)sc1-c1csc(NCCc2ccccc2)n1 too.
Result: > 60 µM (not active)

Ask: Now give it for COc1ccc(/C=C2\CN(Cc3ccccc3)C/C(=C\c3ccc(OC)cc3OC)C2=O)c(OC)c1 too.
Result: 9.01 µM (active)

Ask: Now give it for CS(=O)(=O)N(CC(=O)Nc1ccc(CC#N)cc1)c1ccc(C23CC4CC(CC(C4)C2)C3)cc1 too.
Result: > 60 µM (not active)

====

Provide the recorded AC50 for the entries that follow.
- target: DNA repair and recombination protein RAD54-like (Homo sapiens, UniProt Q92698)
- Sequence (Q92698 whole entry): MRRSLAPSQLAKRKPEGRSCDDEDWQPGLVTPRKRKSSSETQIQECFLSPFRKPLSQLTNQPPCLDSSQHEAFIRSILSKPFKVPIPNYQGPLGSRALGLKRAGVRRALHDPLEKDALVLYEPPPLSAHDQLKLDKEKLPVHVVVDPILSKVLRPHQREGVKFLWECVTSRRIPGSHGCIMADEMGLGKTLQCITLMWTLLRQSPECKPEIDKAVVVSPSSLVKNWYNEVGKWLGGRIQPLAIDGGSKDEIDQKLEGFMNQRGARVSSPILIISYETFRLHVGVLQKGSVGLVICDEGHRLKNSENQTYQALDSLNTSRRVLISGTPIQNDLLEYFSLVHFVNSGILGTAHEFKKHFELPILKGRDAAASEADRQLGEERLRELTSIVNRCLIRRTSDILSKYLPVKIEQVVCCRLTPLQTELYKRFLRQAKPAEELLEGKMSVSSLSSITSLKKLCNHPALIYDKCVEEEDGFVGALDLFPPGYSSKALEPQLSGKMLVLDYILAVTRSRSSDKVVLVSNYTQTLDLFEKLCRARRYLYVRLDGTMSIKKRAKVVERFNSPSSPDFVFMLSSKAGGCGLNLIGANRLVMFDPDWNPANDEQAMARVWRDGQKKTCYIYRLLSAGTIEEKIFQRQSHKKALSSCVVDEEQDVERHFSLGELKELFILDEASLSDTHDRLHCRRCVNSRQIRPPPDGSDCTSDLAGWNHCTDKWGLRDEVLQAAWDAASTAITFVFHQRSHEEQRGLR
- test details: RAD54 Holliday junction migration blockers – biochemical, fluorescence, cherry-picked samples, dose series, confirmation (AID 651657)
- Type: functional
The source made the active and inactive calls.

Ask: Given the compound CN1CCCN(c2cc(-c3ccc4ccccc4c3)nc3ccnn23)CC1 , what is its reported AC50?
Result: 8.49 µM (active)

Ask: Now give it for COc1ccc(Cc2c(-c3ccc(OC)c(OC)c3)nc3c(C)cc(Br)cn23)c(C)c1 too.
Result: 14.8 µM (active)

Ask: Now give it for O=C(Nc1ccc(C2=NCCN2)cc1)c1ccc(C(=O)Nc2ccc(C3=NCCN3)cc2)c(Cl)c1 too.
Result: 13.8 µM (active)

Ask: Now give it for CCN1CCN(c2ccc(NC(=O)c3cc4ccccc4cc3OC)cc2C)CC1 too.
Result: 52.2 µM (active)

Ask: Now give it for Cc1ccc2oc(=O)c3cc(C(=O)NCCCN4CCN(C)CC4)sc3c2c1 too.
Result: 34 µM (active)
